Test: Solubility of ruxolitinib free base or 1:1 phosphate salt in potential solvents (HPLC)
Format: physicochemical
Conditions: isopropyl myristate, oil or lipid, thermodynamic from solid
Experimental endpoint: solubility at 24 h

Q: Bench note: what solubility at 24 h did N#CC[C@H](C1CCCC1)n1cc(-c2ncnc3[nH]ccc23)cn1 [ruxolitinib phosphate] show?
A: < 100 µg/mL

###

Experiment: Solubility of ruxolitinib free base or 1:1 phosphate salt in potential solvents (HPLC)
Format: physicochemical
Settings: benzyl alcohol, organic solvent or mixture, thermodynamic from solid
Experimental endpoint: solubility at 24 h (µg/mL)
One number for each entry, in µg/mL.

Q: Bench note: what solubility at 24 h did N#CC[C@H](C1CCCC1)n1cc(-c2ncnc3[nH]ccc23)cn1 show?
A: 2300

This collection of values is drawn from patent US11590137B2.
